Study system: T1, LNX2_2, Q8N448
T1 sequence (Q8N448 334-432, limits assumed, looked up): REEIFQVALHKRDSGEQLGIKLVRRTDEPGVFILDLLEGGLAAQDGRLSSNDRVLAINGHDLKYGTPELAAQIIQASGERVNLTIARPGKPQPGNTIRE
Experimental details: holdup assay
Parameters: key: below the threshold = too weak to quantify, mostly under pKd 3.1 to 4
Run parameters: plain residues with an end cap or a label only (N-terminal biotin on a linker: ado-ado)
Observed property: pKd

{"columns": ["Binder", "Observed property", "Observed"],
 "data": [
  ["EAVTVESTSL [SLC22A11, Q9NSA0]", "pKd", 3.67],
  ["PALKNGQYWV [CSPG4, Q6UVK1]", "pKd", 5.28]
]}

Entry source: paper PMC9482650
